FYI, the data here is from patent US11407750B2.

# Target Or System: P-gp (Homo sapiens (Human))
# Sequence (P08183 whole entry): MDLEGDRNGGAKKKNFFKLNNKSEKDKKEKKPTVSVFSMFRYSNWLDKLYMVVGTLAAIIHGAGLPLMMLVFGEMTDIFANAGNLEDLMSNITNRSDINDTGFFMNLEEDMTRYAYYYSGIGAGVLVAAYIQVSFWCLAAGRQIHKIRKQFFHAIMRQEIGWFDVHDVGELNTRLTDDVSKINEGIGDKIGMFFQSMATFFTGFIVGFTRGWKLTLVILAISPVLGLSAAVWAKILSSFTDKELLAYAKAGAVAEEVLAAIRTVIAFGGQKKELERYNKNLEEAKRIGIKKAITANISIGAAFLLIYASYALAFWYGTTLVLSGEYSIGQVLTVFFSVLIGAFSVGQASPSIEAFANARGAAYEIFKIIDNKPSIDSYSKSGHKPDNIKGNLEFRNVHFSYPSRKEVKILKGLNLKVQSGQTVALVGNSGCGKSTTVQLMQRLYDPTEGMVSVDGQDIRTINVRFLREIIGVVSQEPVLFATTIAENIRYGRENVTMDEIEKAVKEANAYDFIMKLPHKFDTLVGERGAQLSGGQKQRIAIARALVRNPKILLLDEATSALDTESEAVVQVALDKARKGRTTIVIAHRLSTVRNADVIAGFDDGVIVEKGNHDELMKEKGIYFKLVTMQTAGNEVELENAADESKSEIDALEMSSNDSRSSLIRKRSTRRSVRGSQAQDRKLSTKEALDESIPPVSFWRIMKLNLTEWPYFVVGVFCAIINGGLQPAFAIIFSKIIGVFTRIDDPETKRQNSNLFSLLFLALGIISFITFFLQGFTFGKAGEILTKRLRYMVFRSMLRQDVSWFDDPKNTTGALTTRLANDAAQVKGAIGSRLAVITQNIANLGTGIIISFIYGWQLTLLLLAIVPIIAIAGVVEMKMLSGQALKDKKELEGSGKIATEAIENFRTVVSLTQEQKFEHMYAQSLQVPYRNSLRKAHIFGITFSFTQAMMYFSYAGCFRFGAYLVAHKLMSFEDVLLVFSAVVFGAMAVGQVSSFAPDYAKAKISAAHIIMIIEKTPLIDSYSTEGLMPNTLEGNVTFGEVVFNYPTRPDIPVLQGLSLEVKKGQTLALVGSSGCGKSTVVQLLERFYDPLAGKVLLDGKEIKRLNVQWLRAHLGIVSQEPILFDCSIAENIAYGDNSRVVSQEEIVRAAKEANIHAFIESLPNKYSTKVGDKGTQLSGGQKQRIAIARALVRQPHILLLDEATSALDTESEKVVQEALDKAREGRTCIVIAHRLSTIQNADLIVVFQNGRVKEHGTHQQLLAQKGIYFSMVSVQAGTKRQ
# Assay Info: Bidirectional transport across Caco-2 monolayers (P-gp mediated transport)
# Assay type: in vitro ADME
# Settings: human, Caco-2; 3 μM, no inhibitor

Chemical Structure	Papp B→A at 120 min, 3 μM, ×10⁻⁶ cm/s
CCN1C(=O)N(c2c(F)c(O)cc(OC)c2F)Cc2cnc3[nH]c(CN4CCOCC4)cc3c21	11
